Molecular target: KRas^WT (Homo sapiens, UniProt P01116)
Construct: Biotinylated KRas (corresponding to amino acids 1-169, produced at Accelegan Inc.); biotin (biotinylated); purchased Accelegan Inc
Sequence (P01116 1-169 isoform P01116-2): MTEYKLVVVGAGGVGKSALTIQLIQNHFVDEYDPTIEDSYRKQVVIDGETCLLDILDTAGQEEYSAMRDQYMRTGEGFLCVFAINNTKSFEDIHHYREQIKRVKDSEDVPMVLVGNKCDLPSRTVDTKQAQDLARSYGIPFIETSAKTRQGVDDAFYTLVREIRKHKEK
Assay: KRas binding assay (TR-FRET tracer displacement), KRas WT
Conditions: TR-FRET tracer displacement, KRas WT
Measured Property: IC50

Consider the following illustrative entries.
CCc1c(F)ccc2cc(O)cc(-c3ncc4c(N5CCC[C@@](C)(O)C5)nc(OC[C@]56CCCN5CC(=C(F)F)C6)nc4c3F)c12 (single isomer, unassigned) | < 2 nM
CCc1c(F)ccc2cc(O)cc(-c3ncc4c(N5CCC[C@]6(C5)NC(=O)NC6=O)nc(OCC56CCCN5C/C(=C\F)C6)nc4c3F)c12 (stereo partly drawn) | < 2 nM
C[C@@H]1C[C@@H]1c1c(Cl)cc(O)cc1-c1ncc2c(N3CC4CCC(C3)N4)nc(OC[C@@]34CCCN3C/C(=C\F)C4)nc2c1F | 4 nM
CCc1c(F)ccc2cc(O)cc(-c3nc4c5c(nc(OC[C@@]67CCCN6C[C@H](F)C7)nc5c3F)NCCO4)c12 | 20 nM
Cc1cc2c(c(-c3ncc4c(N5CCC[C@@](C)(O)C5)nc(OCC56CCCN5CCC6)nc4c3F)c1C)CC(=O)N2 | 665 nM

Problem: Fill in reported IC50 for this entry: "Oc1cc(-c2ncc3c(N4C[C@@H]5C[C@H](C4)[C@H](O)C5)nc(OC[C@@]45CCCN4C[C@H](F)C5)nc3c2F)c2ccccc2c1F"
Solution: 84 nM

Problem: Fill in reported IC50 for this entry: "CN(C)C(=O)c1cc2n(n1)CCCN(c1nc(OC[C@@]34CCCN3C[C@H](F)C4)nc3c(F)c(-c4c(C5CC5)c(Cl)cc5[nH]ncc45)ncc13)C2"
Solution: 13 nM

Problem: Fill in reported IC50 for this entry: "Oc1cc(-c2ncc3c(N4C[C@@H]5C[C@H](C4)[C@H](O)C5)nc(OC[C@@]45CCCN4C[C@H](F)C5)nc3c2F)c2ccccc2c1Cl"
Solution: 3090 nM

Problem: Fill in reported IC50 for this entry: "C[C@@]1(O)CCCN(c2nc(OCC34CCCN3CCC4)nc3c(F)c(-c4c(C5CC5)c(Cl)cc5[nH]ncc45)ncc23)C1"
Solution: 17 nM

Problem: Fill in reported IC50 for this entry: "O[C@@H]1C[C@H]2C[C@@H]1CN(c1nc(OC[C@@]34CCCN3C[C@H](F)C4)nc3c(F)c(-c4cccc5ccccc45)ncc13)C2"
Solution: 419 nM

Problem: Fill in reported IC50 for this entry: "C[C@@]1(O)CCCN(c2nc(OC[C@@]34CCCN3C[C@H](F)C4)nc3c(F)c(-c4c(C5CC5)c(Cl)cc5[nH]ncc45)ncc23)C1"
Solution: 11 nM

Problem: Fill in reported IC50 for this entry: C[C@@H]1C[C@@H]1c1c(Cl)cc(O)cc1-c1ncc2c(N3CCCC4(CNS(=O)(=O)N4)C3)nc(OC[C@@]34CCCN3C[C@H](F)C4)nc2c1F (stereo in doubt)
Solution: < 2 nM

---

Target: KRas^G12D (Homo sapiens, UniProt P01116, G12D)
Construct: Biotinylated KRas (corresponding to amino acids 1-169, produced at Accelegan Inc.); biotin (biotinylated); purchased Accelegan Inc
Sequence (P01116 1-169 isoform P01116-2 G12D): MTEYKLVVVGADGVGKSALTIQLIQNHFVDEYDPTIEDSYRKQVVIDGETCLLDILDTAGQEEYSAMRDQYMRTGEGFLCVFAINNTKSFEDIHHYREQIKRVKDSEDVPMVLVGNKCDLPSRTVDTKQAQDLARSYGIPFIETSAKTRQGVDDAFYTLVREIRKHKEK
Assay: KRas binding assay (TR-FRET tracer displacement), KRas G12D
Measured Property: IC50

Problem: Fill in reported IC50 for this entry: CCc1c(F)ccc2cc(O)cc(-c3ncc4c(N5CCC6CCC(C6)C5)nc(OC[C@@]56CCCN5C[C@H](F)C6)nc4c3F)c12 (stereo partly drawn)
Solution: 47 nM

Problem: Fill in reported IC50 for this entry: CCc1c(F)ccc2cc(O)cc(-c3ncc4c(N5CCC(c6ccc(=O)[nH]n6)C5)nc(OC[C@@]56CCCN5C[C@H](F)C6)nc4c3F)c12 (stereo partly drawn)
Solution: 1250 nM

Problem: Fill in reported IC50 for this entry: "CCc1c(F)ccc2cc(O)cc(-c3ncc4c(N5CCCn6nc(S(=O)(=O)N(C)C)cc6C5)nc(OC[C@@]56CCCN5C[C@H](F)C6)nc4c3F)c12"
Solution: < 2 nM

Problem: Fill in reported IC50 for this entry: "Oc1cc(-c2ncc3c(N4C[C@@H]5C[C@H](C4)[C@H](O)C5)nc(OC[C@@]45CCCN4C[C@H](F)C5)nc3c2F)c2cc(C(F)(F)F)ccc2c1"
Solution: 5 nM

Problem: Fill in reported IC50 for this entry: "Cc1cc2[nH]nnc2c(-c2ncc3c(N4CCC[C@@](C)(O)C4)nc(OCC45CCCN4CCC5)nc3c2F)c1C"
Solution: 8110 nM

Problem: Fill in reported IC50 for this entry: O=C1NC(=O)C2(CCCN(c3nc(OC[C@@]45CCCN4C[C@H](F)C5)nc4c(F)c(-c5c6ccccc6cc6[nH]ncc56)ncc34)C2)N1 (stereo partly drawn)
Solution: 8 nM
